compounds and their reported survival
Test system: DeltatarO mutant
Test: S. aureus survival, RN4220 and DeltatarO strains – OD600, teichoic acid synthesis inhibitors, primary screen (AID 463173)
Settings: S. aureus RN4220 wild type/DeltatarO growth, OD600, 18 h, stronger effect = lower value, screened at 18.75 µg/mL (by protocol)
The whole screen tested about 52,000 compounds, of which about 4,300 (8.3%) were called active. What follows is part of a selection rich in actives, with near analogues and random picks from the rest.
Express your answer in %, writing the number without its unit.

                                   compound  assay_endpoint  readout_value
0  CCOc1ccc(-c2cn(-c3ccc(OC)cc3)c(SCC(=O)Nc3ccccc3Cl)n2)cc1        survival             99
1  CCOc1ccc(C(=O)/C=C/c2cn(CC(O)CN3CCc4ccccc43)c3ccccc23)cc1 (stereo unspecified)        survival             56
2  Cc1cc(-n2c(SCC(=O)NCc3ccccc3)nc3ccsc3c2=O)ccc1Cl        survival             87

-- ask Please look at O=C(CSc1nc(-c2ccccc2)[nH]c1-c1ccccc1)Nc1ccc2c(c1)OCO2 and tell me its recorded survival on DeltatarO mutant.
-- reply 67

-- ask Please look at COCCCNC(=O)Nc1cc(C(=O)NCc2ccc(OC)cc2)ccc1N1CCCC1 and tell me its recorded survival on DeltatarO mutant.
-- reply 67

-- ask Please look at COc1cc(OC)cc(-n2c(=O)c3ccccc3n(Cc3ccccc3C#N)c2=O)c1 and tell me its recorded survival on DeltatarO mutant.
-- reply 128

---

compounds and their reported survival
Test system: DeltatarO mutant
Assay: S. aureus survival, RN4220 and DeltatarO strains – OD600, teichoic acid synthesis inhibitors, primary screen (AID 463173)
Conditions: S. aureus RN4220 wild type/DeltatarO growth, OD600, 18 h, stronger effect = lower value, screened at 18.75 µg/mL (by protocol)
Among all 52,000 compounds or so, about 4,300 (8.3%) were called active. Many of the other results were omitted from the sample, so actives are more common in it than they were.
Express your answer in %, writing the number without its unit.

In [3]: df
Out[3]:
                                 mol_smiles  readout_value
0  CCCSc1ncc(Cl)c(C(=O)Nc2sc(C(C)=O)c(C)c2C(=O)OCC)n1             51

-- ask Please supply the value of reported survival for the item CCCSc1ncc(Cl)c(C(=O)Nc2scc(-c3ccc(C)cc3)c2C(=O)OCC)n1
-- reply 62

-- ask Please supply the value of reported survival for the item COc1ccc(CCNC(=O)CCc2c(C)nc3c(c(C)nn3-c3ccccc3)c2C)c(OC)c1
-- reply 53

-- ask Please supply the value of reported survival for the item CCOC(=O)c1c(NC(=O)c2nc(S(C)(=O)=O)ncc2Cl)sc(C(C)=O)c1C
-- reply 6

-- ask Please supply the value of reported survival for the item Cc1nc2c(c(C)nn2-c2ccccc2)c(C)c1CCC(=O)NCc1ccccc1
-- reply 70

-- ask Please supply the value of reported survival for the item Cc1cccc(C)c1OCC(=O)NCC1(N(C)C)CCCCC1
-- reply 86

---

Tested on: DeltatarO mutant
Test: S. aureus survival, RN4220 and DeltatarO strains – OD600, teichoic acid synthesis inhibitors, primary screen (AID 463173)
Details: S. aureus RN4220 wild type/DeltatarO growth, OD600, 18 h, screened at 18.75 µg/mL (by protocol)
Hit rate of the full screen: of about 52,000 compounds, about 4,300 (8.3%) were called active. No stated cut-off is given here; in the data, active means survival mostly below about 52% (no sharp cut-off); inactive means mostly above about 56%. Only a selection was taken, and actives are over-represented in it overall.
# valid calls are true (active), false (inactive); nothing else

>>> print(df.to_string())
                                   compound            system  class_label
0  CCOc1ccc(N2CC(c3nc4ccccc4n3Cc3cccc(C)c3)CC2=O)cc1 (stereo unspecified)  DeltatarO mutant         true

-- ask // outcome(item) with item = C#CCn1c(C2CC(=O)N(c3ccc(OCC)cc3)C2)nc2ccccc21 (stereo unspecified)
-- reply false

-- ask // outcome(item) with item = COc1cccc(C2=CC(c3ccc(OC)c(OC)c3OC)n3ncnc3N2)c1 (stereo unspecified)
-- reply false
